Test system: A549 NSCLC
assay: NCI tumour cell line growth inhibition, 48 h
observedProperty: GI50

| molecule | endpointValue |
| --- | --- |
| CC(C)[C@@H]1C=C2CC[C@H]3[C@](C)(CN)CCC[C@]3(C)[C@H]2CC1 | 3.07 µM |
| C[C@]12CCC3c4ccc(O)cc4CCC3C1CC[C@@]2(O)CNC(=O)/C=C/c1ccc(O)c(O)c1 (some centres not stated) | 2.63 µM |
| Nc1cc(NN=C(c2ccc(O)cc2)c2ccc(O)cc2)c([N+](=O)[O-])cc1[N+](=O)[O-] | 2.29 µM |
| COc1ccc(CCN=C2NC(=O)/C(=C/c3ccc4ncccc4c3)S2)cc1 | > 25 µM |
| Nc1n[nH]c2cccc(C#Cc3cccc(C(=O)Nc4ccc(CN5CCOCC5)c(C(F)(F)F)c4)c3)c12 | 3.13 µM |
| CN(C)c1cc(NN=C(c2ccc(O)cc2)c2ccc(O)cc2)c([N+](=O)[O-])cc1[N+](=O)[O-] | 4.45 µM |
| N#Cc1c[nH]n2c(N=Nc3ccc(Cl)cc3)c(O)nc12 | 31.9 µM |
| CN1CC[C@@H](NC(=O)Nc2ccc(C#N)cc2)C[C@@H]1c1nc2ccccc2[nH]1 | > 100 µM |

The recorded GI50 for O=C1C=C[C@@H](COC2OC(CO)C(O)C(O)C2O)O1 (some centres not stated) is 16.7 µM

The molecule Cn1ccc2c3c(Oc4ccc(NC(N)=O)cc4)ccnc3ccc21 showed GI50 equal to > 100 µM

Measured GI50 of C=C1C(=O)O[C@H]2[C@H]1CC/C(COC(=O)NCc1ccc(Cn3c(=O)sn(-c4ccc(OC)cc4)c3=O)cc1)=C\CC[C@@]1(C)O[C@@H]21 : 15.2 µM

Record COc1cc(-c2ccc3cc(OC)c(OC)c(OC)c3c2)cc(OC)c1OC , field GI50: 7.66 µM

---

# TGI per record follows
Test system: BT-549 breast
assay: NCI tumour cell line growth inhibition, 48 h
Use µM as the unit, but write only the number.

| compound | TGI [µM] |
| --- | --- |
| Cc1cc(I)cc(CN(CCCN(C)C)C(C)C)c1O | 23.9 |

// moving on: another record for TGI
Consider CC1(C)O[C@H]2OC(CO[Si](C)(C)C(C)(C)C)C(N=[N+]=[N-])[C@H]2O1 (stereo not given in full) . Its measured TGI is 36.7

---

Tested on: HS 578T breast
assay: NCI tumour cell line growth inhibition, 48 h; in the data active = GI50 below about 0.43 µM; inactive = the rest
In this exercise, the only acceptable responses are active, inactive

# example entries with known answers
| compound | testedSystem | groupLabel |
| --- | --- | --- |
| O=C(/C(=C/c1ccc([N+](=O)[O-])cc1)SCc1ccccc1)c1ccc(Cl)cc1 | HS 578T breast | inactive |
| CCCCCCCCCCCCCCCC[N+](C)(C)Cc1ccccc1 | HS 578T breast | inactive |
| CCC(=C/[C@H](C)C/C=C/C(C)=C/[C@@H](C)C(=O)[C@@H](C)[C@H](O)[C@@H](C)CC)/C=C/[C@H]1OC(=O)C=C[C@@H]1C | HS 578T breast | active |
| COc1ccc2nc3cc(Cl)ccc3c(NCCNCC(C)O)c2c1 (configuration not stated) | HS 578T breast | inactive |
| CCCCCCCCCCCCC(O)c1ccc(C#CCCCCCCCCCO)o1 (configuration not stated) | HS 578T breast | inactive |
| c1ccc(Sc2ncnc3ccccc23)cc1 | HS 578T breast | inactive |

Recorded test call requested for Cn1ccc2c3c(Oc4ccc(NC(N)=O)cc4)ccnc3ccc21
inactive

For this compound, state the assay outcome: N#CC(C#N)=C/C=C(\Sc1nc2ccccc2s1)c1ccc(Cl)cc1
inactive

Recorded test outcome, item CCn1c(-c2nonc2N)nc2c(C#CC(C)(C)O)nc(OC[C@@H](N)c3ccccc3)cc21
inactive

Hi team, can someone confirm the assay call for COc1cccc(-c2nc(-c3ccc(NC(=O)OC(C)C)cc3)[nH]c2-c2ccnc(Br)c2)c1 ?
active

Hey, what did the test say about C[C@]12CCC3c4ccc(O)cc4CCC3C1CC[C@@]2(O)CNC(=O)/C=C/c1ccc(O)c(O)c1 (some centres not stated) ?
inactive

Recorded call for CCN1C(=O)N(c2ccccc2)C2NC(=S)N(/N=C/C=C/c3ccccc3OC)C21 (configuration not stated) ?
active

---

// values below are reported log10 of TGI
Tested on: PC-3 prostate
assay: NCI tumour cell line growth inhibition, 48 h
Lab note - TGI converted to log10 from values in µM.

Please review the entries below; each comes with its answer.
| compound | testedSystem | log10 of TGI |
| --- | --- | --- |
| Cc1cc(-c2nc3ccc(F)cc3s2)ccc1NC(=O)[C@H](C)N | PC-3 prostate | 1.39 |
| CCCCCCCCCCCCCCCC[N+](C)(C)Cc1ccccc1 | PC-3 prostate | 0.30 |
| COCCOc1ccc(-c2nc3ccc(-c4nc5ccc(N6CCN(C)CC6)cc5[nH]4)cc3[nH]2)cc1 | PC-3 prostate | 1.39 |

log10 of TGI measured on CCCCCC1=CC(=O)C1(Cl)Cl = 1.62

Entry under test: COc1cccc(C(=O)NC(c2ccc(C)cc2)c2cc(Cl)c3cccnc3c2O)c1 (stereo not given) . Its log10 of TGI was 1.21

---

Tested on: RXF 393 renal
assay: NCI tumour cell line growth inhibition, 48 h
observedProperty: log10(TGI) (log10 of the value in µM)
In plain terms, each number is the log10 of measured TGI in µM.

Here is how some molecules turned out for log10(TGI).
| molecule | endpointValue |
| --- | --- |
| C=CC1(CC/C(=C\[N+](=O)[O-])c2ccc(OC)c(OC)c2)OCC(C)(C)CO1 | 1.56 |
| O=c1ccc2ccccc2cc1[O-].O=c1ccc2ccccc2cc1[O-].[O]=[U+2]=[O] | 1.60 |
| O=S(=O)(c1ccccc1)c1cccc2c1NCCC2 | 1.95 |
| CCCOc1cc2ccccc2cc1C(=O)Nc1nc(N)c2c(ccc3nccc32)[nH]1 | 0.06 |
| O=C1CCCCN1c1ccccc1C#C/C=C\C#Cc1ccccc1C(F)(F)F | 0.44 |

Query O=c1c(-c2ccccc2)c2oc(c1-c1ccccc1)CSCc1cccc(c1)CSC2 yields log10(TGI) of 1.71

GET /value?item= Oc1ccc2c(c1)c1c(n2CCN2CCOCC2)-c2ccccc2CC1 &field=log10(TGI) returns 1.88

Noted for O=C1C=C[C@@H](COC2OC(CO)C(O)C(O)C2O)O1 (stereo partly specified) : its log10(TGI) reads 0.95

---

Test system: RXF 393 renal
assay: NCI tumour cell line growth inhibition, 48 h
Listing of recorded TGI by entry.

| smilesNotation | testedSystem | endpointValue |
| --- | --- | --- |
| CCCCCCCCCCn1cc[n+](C)c1 | RXF 393 renal | 14.2 µM |

get_value(item= Nc1nc2c(c(-c3cccc(Cl)c3)n1)COC/C2=C\c1cccc(Cl)c1 , readout=TGI) returns > 100 µM

Recorded TGI (compound CCOC(=O)C1=C(C)N(c2ccc(F)cc2F)[C@]2(C#N)C(O)=C(Cl)C(Cl)=C(O)[C@]12C#N ): > 100 µM

// TGI value for Oc1ccccc1CNCc1nc2ccccc2[nH]1 : > 100 µM

Recorded result, CCCCOC(=O)Nc1ccc(S(=O)(=O)Nc2ccccc2Cl)cc1 , TGI: 55.9 µM

// Cc1ccc(N(Cc2ccccc2)Cc2ccccc2)cc1 : TGI value = > 100 µM

---

Tested on: COLO 205 colon
assay: NCI tumour cell line growth inhibition, 48 h; in the data active = GI50 below about 0.43 µM; inactive = the rest
Permitted responses: 1 for active, 0 for inactive

Here's what some known entries look like.
| compound | groupLabel |
| --- | --- |
| CCN(C(=O)N1CCN(c2cc3c(cc2F)c(=O)c(C(=O)O)cn3C2CC2)CC1)c1nc(-c2ccc(Cl)cc2)cs1 | 0 |
| COc1ccc2nc(NC(=O)CSc3nnc4n3S(=O)(=O)c3ccccc3N4c3ccccc3)sc2c1 | 0 |
| CN1CC[C@@H](NC(=O)Nc2ccc(C#N)cc2)C[C@@H]1c1nc2ccccc2[nH]1 | 0 |
| Nc1ccc(C2=NNC(=O)Cc3cc4c(cc32)OCCO4)cc1Cl | 0 |
| CCN1C(=O)N(c2ccccc2)C2NC(=S)N(/N=C/C=C/c3ccccc3OC)C21 (stereo not drawn) | 1 |

Please indicate how the test categorized COc1ccc2nc3cc(Cl)ccc3c(NCCNCC(C)O)c2c1 (stereo not drawn) .
0

State the result this test recorded for O=C(CCCSc1nc(-c2ccccc2)cc(-c2ccccc2)n1)NO .
0

Test call for this compound, please: c1ccc(Sc2ncnc3ccccc23)cc1
0

---

Test system: HOP-92 NSCLC
assay: NCI tumour cell line growth inhibition, 48 h
observedProperty: TGI (µM)
Answer with a number only, understood to be in µM.

Please review the entries below; each comes with its answer.
| smilesNotation | unitAbbrev | TGI |
| --- | --- | --- |
| CCCCCCCCCCn1cc[n+](C)c1 | µM | 22.6 |
| O=C1CCCCN1c1ccccc1C#C/C=C\C#Cc1ccccc1C(F)(F)F | µM | 43.1 |
| O=[N+]([O-])c1cc(C=NC23CC4CC(CC(C4)C2)C3)ccc1Cl | µM | 60.5 |
| CCCCCCCC/C=C\CCCCCCCCCCCC(=O)O | µM | 101 |

Alright, here's another compound for you.
Item: O=C1c2cc3c(cc2-c2c1c1ccc(F)cc1c(=O)n2C[C@H](O)[C@@H](O)[C@H](O)CO)OCO3 | System: HOP-92 NSCLC | TGI: 0.69
